Measured apparent KD of MS2 coat protein, listed per entry for reference.
Tested on: MS2 coat protein
test-description: apparent KD of MS2 coat protein; designed switch direction (-1 OFF switch, 1 ON switch): -1; higher = weaker reporter binding
measurement-setup: input ligand: FMN 200 uM
API: value field is a number in nM; no unit string.

Consider the reported apparent KD of MS2 coat protein for these sequences:
GCCAUGUGAGGAUAUGUGGUCGAAUAUGAAAGUGAUUGACCAUAGAAGGCACAUGAGGAUCACCCAUGUCCUUU [Eternabot (L2) Solution 64] (Eterna round: R97, puzzle: Exclusion 4) | 131
GUCACAUGGGUAUAGGAUCACAUGAGGAUCACCCAUGUGACUAACAAGCUUUUUGCUCGUCUUAUGUCUAUGUGAAU [Stov1/18-A2] (Eterna round: R97, puzzle: Sensor, turn-off variant 1) | 26.2
UGUUGUUACGUAGGAUAUCCACCAACAGGUGGAAGGAUAUGUACGCAGAAGGUUCGCCAACAGGCGGAGAAGGACGGGUUAACA [pwkr exNG2 2xF7 2xFMN.27] (Eterna round: R96, puzzle: Exclusion NG 2) | 1370

Continue with the next sequence.
Query GCAGUUCGAGUUAGGAUAUGAUUAAAAUUCGGAUAUCAGAAGGAACUUGAGGAUCACCCAAGUAUAGAUGUUGC [JR_BMEx4_Sub059] (Eterna round: R97, puzzle: Brourd's mod of Exclusion 4) yields apparent KD of MS2 coat protein of 42.1
